Each recorded value in this set is attributed to paper PMC5540273.

system: TAOK1; conditions: concentration: 1 μM, replicates: in singlicate; n = 1
Here, each record is paired with measured %Inh data.
MEASUREMENT TYPE: %Inh (%)

>>> value_observed("O=C(Nc1n[nH]c2nc(-c3ccco3)c(Br)cc12)C1CCN(Cc2ccccc2)C1.O=C(O)[C@H](O)[C@@H](O)C(=O)O (stereo not drawn)")
0
>>> value_observed("Cc1ccccc1-c1cc(-c2c[nH]nc2-c2ccccn2)ccn1")
0
>>> value_observed("COc1ccc2cc(-c3nc(-c4ccccc4C(C)C)[nH]c3-c3ccncc3)ccc2c1")
0
>>> value_observed("Cc1ccc(NC(=O)Nc2ccccc2)cc1-c1ccc(C(=O)Nc2ccncc2)cc1")
0
>>> value_observed("CC(C)c1cc(-c2ccc3c(N)n[nH]c3c2)nc(N)n1")
0
>>> value_observed("COC(=O)C(NC(=O)NC1CCN(c2ccnc(Nc3ccc(F)cc3)n2)C1)c1ccccc1 (stereo not drawn)")
0
>>> value_observed("CC[C@@H]1CO[C@H](C(=O)Nc2ccccc2)CN1c1cc(-c2ccc3c(N)n[nH]c3c2)nc(NC)n1")
0
>>> value_observed("COc1ccc(Nc2nccc(-c3ccc(NC(=O)c4cc5cc(F)ccc5[nH]4)cc3)n2)cc1")
0
>>> value_observed("Cc1ccc(-c2nc(Nc3ccncc3)c3ccccc3n2)s1")
0
>>> value_observed("O=c1cc(N2CCOCC2)nc2n(Cc3ccccc3F)ccn12")
0
>>> value_observed("O=c1cc(N2CCOCC2)nc2n(Cc3cccc(Cl)c3Cl)c3ccccc3n12")
0
>>> value_observed("Cc1c(Cn2c(C)c(C)n3c(=O)cc(N4CCOCC4)nc23)cccc1C(F)(F)F")
0
>>> value_observed("CNc1nc(-c2ccc3c(N)n[nH]c3c2)cc(N2C[C@@H](C(=O)Nc3ccccc3)CC[C@H]2C)n1")
0
>>> value_observed("COc1ccc(Nc2nccc(N3CCC(NC(=O)C(C)c4ccc(Cl)cc4)CC3)n2)cc1 (stereo not drawn)")
0
>>> value_observed("CS(=O)(=O)CCNCc1nc(-c2ccc3ncnc(Nc4ccc(OCc5ccccc5)c(Cl)c4)c3c2)cs1.Cl")
0
>>> value_observed("COc1ccc(CSc2nnc(-c3ccc4nccn4c3)o2)cc1C(F)(F)F")
22
>>> value_observed("Cn1cncc1-c1cc2c(Nc3ccc(OCc4ccccc4)cc3)ncnc2cn1")
0
>>> value_observed("CC(=O)c1c(C)c2cnc(Nc3ccn(C)n3)nc2n(C2CCCC2)c1=O")
0
>>> value_observed("Fc1ccc(-c2nc[nH]c2-c2ccncc2)cc1")
0
>>> value_observed("Cc1cnc(N)c(/C=C/c2cncc(C(=O)NCCc3ccc(Cl)cc3Cl)c2)c1.Cl")
11
>>> value_observed("Fc1ccc(-c2nn3cccc(F)c3c2-c2ccncc2)cc1")
0
>>> value_observed("COc1ccc(CSc2nnc(-c3ccc4ncsc4c3)o2)cc1C(F)(F)F")
31
>>> value_observed("Nc1ncnc2occ(-c3ccc4c(c3)CCN4C(=O)Cc3cc(F)ccc3F)c12")
0
>>> value_observed("COc1cc2ncnc(Nc3cccc(Br)c3)c2cc1OC.Cl")
0
>>> value_observed("CS(=O)(=O)Cc1ccc(Nc2nccc(-c3c(-c4cccc(NC(=O)C5CCCCC5)c4)nn4ncccc34)n2)cc1")
11
>>> value_observed("Cc1c(Cn2c3ccccc3n3c(=O)cc(N4CCOCC4)nc23)cccc1C(F)(F)F")
0
>>> value_observed("COc1nccc(-c2c(-c3ccc(F)cc3)ncn2CCCN2CCOCC2)n1")
0
>>> value_observed("CSc1ccc(-c2nc3n(c2-c2ccncc2)CCC3)cc1")
0
>>> value_observed("Nc1nccc(-c2c(-c3ccc(F)cc3)ncn2C2CCN(Cc3ccccc3)CC2)n1")
31
>>> value_observed("Cc1cccc2c(-c3ccncn3)c(-c3ccc(F)cc3)nn12")
0
>>> value_observed("CCn1c(-c2c(N)noc2C)nc2cnccc21")
0
>>> value_observed("COc1cccc(C2=C(Nc3cc(Cl)c(O)c(Cl)c3)C(=O)NC2=O)c1")
69
>>> value_observed("CS(=O)(=O)CCNCc1nc(-c2ccc3ncnc(Nc4ccc5c(cnn5Cc5ccccc5)c4)c3c2)cs1.Cl.Cl")
0
>>> value_observed("CCCCc1nn2ncccc2c1-c1ccnc(NC2CC2)n1")
0
>>> value_observed("O=C(Nc1n[nH]c2nc(-c3cccs3)c(Br)cc12)C1CC1")
10
>>> value_observed("Cl.Cl.Cl.N#Cc1ccc(CCNc2nccc(-c3cccc(CN4CCNCC4)c3)n2)cc1")
0

----------
test system: INSR; conditions: concentration: 1 μM, replicates: in singlicate; n = 1
Here, each record is paired with measured %Inh data.
MEASUREMENT TYPE: %Inh (%)

>>> value_observed("COc1cccc(C2=C(Nc3cc(Cl)c(O)c(Cl)c3)C(=O)NC2=O)c1")
0
>>> value_observed("CS(=O)(=O)CCNCc1nc(-c2ccc3ncnc(Nc4ccc(OCc5ccccc5)c(Cl)c4)c3c2)cs1.Cl")
0
>>> value_observed("CCCCc1nn2ncccc2c1-c1ccnc(NC2CC2)n1")
0
>>> value_observed("COc1nccc(-c2c(-c3ccc(F)cc3)ncn2CCCN2CCOCC2)n1")
0
>>> value_observed("Nc1cccc(-c2ccc3c(N)n[nH]c3c2)n1")
3
>>> value_observed("O=C(Nc1n[nH]c2nc(-c3ccco3)c(Br)cc12)C1CCN(Cc2ccccc2)C1.O=C(O)[C@H](O)[C@@H](O)C(=O)O (stereo not drawn)")
12
>>> value_observed("Fc1ccc(-c2nc[nH]c2-c2ccncc2)cc1")
24
>>> value_observed("COc1ccc(CSc2nnc(-c3ccc4ncsc4c3)o2)cc1C(F)(F)F")
0
>>> value_observed("COC(=O)c1cccc(NC(=O)NC2CCN(c3ccnc(Nc4ccc(F)cc4)n3)C2)c1 (stereo not drawn)")
0
>>> value_observed("Cc1ccc(NC(=O)Nc2ccc(Cl)cc2)cc1-c1ccc(C(=O)Nc2ccncc2)cc1")
0
>>> value_observed("COc1cccc(CNC(=O)NC2CCN(c3ccnc(Nc4ccc(F)cc4)n3)C2)c1 (stereo not drawn)")
0
>>> value_observed("Cc1c(Cn2c(C)c(C)n3c(=O)cc(N4CCOCC4)nc23)cccc1C(F)(F)F")
0
>>> value_observed("COc1ccc(-c2coc3ccc(-c4nnc(C)o4)cc23)cc1")
14
>>> value_observed("Cc1nccc(-c2c(-c3ccc(F)cc3)ncn2CCCN2CCOCC2)n1.Cl")
3
>>> value_observed("c1ccc(-c2ccnc3[nH]ccc23)cc1")
5
>>> value_observed("CC[C@@H]1CO[C@H](C(=O)Nc2ccccc2)CN1c1cc(-c2ccc3c(N)n[nH]c3c2)nc(NC)n1")
10
>>> value_observed("COc1ccc(Nc2nccc(-c3ccc(NC(=O)c4cc5cc(F)ccc5[nH]4)cc3)n2)cc1")
0
>>> value_observed("CCc1ccc(-c2ccc3c(c2)-c2n[nH]cc2S(=O)(=O)N3C)cc1")
0

----------
pKd: −log10 of the molar value.
Quick note: these are pKd numbers for system: CLK2;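 note: kd values determined as follow-up on hits from a single-replicate KINOMEscan panel screen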
MEASUREMENT TYPE: pKd

>>> value_observed("COc1ccc(CSc2nnc(-c3ccc4nccn4c3)o2)cc1C(F)(F)F")
6.82
>>> value_observed("CNc1cc(-c2ccc3c(N)n[nH]c3c2)nc(N)n1")
6.39

----------
test system: ZAK; settings: concentration: 1 μM, replicates: in singlicate; n = 1
So basically, the class depends on measured %Inh, and the ranges are label 0: < 5%; label 1: ≥ 5% and < 20%; label 2: ≥ 20%

>>> class("Fc1ccc(-c2nc3n(c2-c2ccncc2)CCS3)cc1")
"label 0"
>>> class("Cc1c(Cn2c(C)c(C)n3c(=O)cc(N4CCOCC4)nc23)cccc1C(F)(F)F")
"label 1"
>>> class("Cc1nccc(-c2c(-c3ccc(F)cc3)ncn2CCCN2CCOCC2)n1.Cl")
"label 2"
>>> class("Nc1cccc(-c2ccc3c(N)n[nH]c3c2)n1")
"label 1"
>>> class("Cn1cncc1-c1cc2c(Nc3ccc(OCc4ccccc4)cc3)ncnc2cn1")
"label 2"
>>> class("FC(F)(F)c1ccccc1-c1cc(-c2c[nH]nc2-c2ccccn2)ccn1")
"label 0"
>>> class("Cn1cncc1C(=O)NC1CCN(c2ccnc(Nc3ccc(F)cc3)n2)C1 (stereo not shown)")
"label 2"
>>> class("CC(=O)c1c(C)c2cnc(Nc3ccn(C)n3)nc2n(C2CCCC2)c1=O")
"label 0"
>>> class("COc1ccc(CSc2nnc(-c3ccc4c(c3)CCO4)o2)cc1")
"label 0"
>>> class("COc1ccc(Nc2nccc(-c3ccc(NC(=O)c4cc5cc(F)ccc5[nH]4)cc3)n2)cc1")
"label 1"
>>> class("Cc1ccc(NC(=O)c2ccc(Cl)cc2)cc1-c1ccc(C(=O)Nc2ccncc2)cc1")
"label 1"
>>> class("Cc1ccc(NC(=O)Nc2ccc(Cl)c(C(F)(F)F)c2)cc1-c1ccc(C(=O)Nc2ccncc2)cc1")
"label 2"
>>> class("CC(C)c1cc(-c2ccc3c(N)n[nH]c3c2)nc(N)n1")
"label 1"
>>> class("COc1ccc(CSc2nnc(-c3ccc4ncsc4c3)o2)cc1C(F)(F)F")
"label 0"
>>> class("Cc1cnc(N)c(/C=C/c2cncc(C(=O)NCCc3ccc(Cl)cc3Cl)c2)c1.Cl")
"label 1"
>>> class("c1ccc(-c2ccnc3[nH]ccc23)cc1")
"label 2"
>>> class("Fc1ccc(-c2nn3cccc(F)c3c2-c2ccncc2)cc1")
"label 2"
